All figures here come from patent US20240408169A1.

Entries annotated with measured pIC50
biological target: CyclinA2/CDK2 (Homo sapiens, UniProt P20248); construct: purchased CRELUX Protein Services; assay: Fluorescence Polarization (FP) competitive binding assay, Cyclin A2/Cdk2; conditions: 8 nM Cyclin A2/Cdk2, 2 nM FAM probe; average of 2-3 independent experiments; read-out: Cyclin A FP IC50;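 note: plates equilibrated two hours at room temperature before polarization reading, IC50 fitted from eight-concentration compound titration curves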
pIC50: −log10 of the molar value. *1 amine or outer side, *2 acyl side, *3 side chain or, on linkers, in order; H or OH if unused. Where a SMILES comes first, the peptide text is derived from it. Bridges are numbered along the chain shown (N, C = ends). [ ]: non-standard residue; d: D form. The star is where a group is joined. X37 = CN1CCN(c2ccc(-c3ccc(F)cc3C[C@@H](C(=O)[*:2])N(C)[*:1])cn2)CC1; X8 = CN1CCN(C2CC=C(c3ccc(Cl)cc3C[C@@H](C(=O)[*:2])N(C)[*:1])CC2)CC1; X26 = CN([C@@H](Cc1cc(F)ccc1-c1cnn(C2CC2)c1)C(=O)[*:2])[*:1]; NMehhhLys(Me) = CN([C@@H](CCCCCCCN(C)[*:3])C(=O)[*:2])[*:1]; NMe(hhhLys) = CN([C@@H](CCCCCCCN[*:3])C(=O)[*:2])[*:1]; cBuCO(3,3-F2-1-CF3) = O=C(C1(C(F)(F)F)CC(F)(F)C1)*; Pro(trans-4-F) = O=C(O)[C@@H]1C[C@@H](F)CN1; Gly(cPr) = N[C@H](C(=O)O)C1CC1

compound	pIC50
CC(C)C[C@@H]1NC(=O)[C@@H](N(C)C(=O)[C@@H](NC(=O)[C@@H]2C[C@@H](F)CN2C(=O)C2(C(F)(F)F)CC(F)(F)C2)C2CC2)CCCCCCCNC(=O)[C@H](Cc2cc(F)ccc2-c2cnn(C3CC3)c2)N(C)C1=O [Example 213] ({cBuCO(3,3-F2-1-CF3)}-[Pro(trans-4-F)][Gly(cPr)][NMe(hhhLys)]L[X26]; lactam 3-C)	7.52
CC(C)C[C@@H]1NC(=O)[C@@H](N(C)C(=O)[C@@H](NC(=O)[C@@H]2C[C@@H](F)CN2C(=O)C2(C(F)(F)F)CC(F)(F)C2)C2CC2)CCCCCCCN(C)C(=O)[C@H](Cc2cc(F)ccc2-c2ccc(N3CCN(C)CC3)nc2)N(C)C1=O [Example 391] ({cBuCO(3,3-F2-1-CF3)}-[Pro(trans-4-F)][Gly(cPr)][NMehhhLys(Me)]L[X37]; lactam 3-C)	7.52
CC(C)C[C@@H]1NC(=O)[C@@H](N(C)C(=O)[C@@H](NC(=O)[C@@H]2C[C@@H](F)CN2C(=O)C2(C(F)(F)F)CC(F)(F)C2)C2CC2)CCCCCCCN(C)C(=O)[C@H](Cc2cc(Cl)ccc2C2=CCC(N3CCN(C)CC3)CC2)N(C)C1=O (stereo partly drawn) [Example 376] ({cBuCO(3,3-F2-1-CF3)}-[Pro(trans-4-F)][Gly(cPr)][NMehhhLys(Me)]L[X8]; lactam 3-C)	7.70

* * *

test system: NCI-H1048 cells; test: MTT proliferation assay, NCI-H1048; assay type: cell-based; details: 5 days compound exposure, 1:3 serial dilution starting at 10 μM;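 note: Dose-response in 96-well plates over 8 or 10 concentration points, with exposure spanning 3-4 cell doublings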
assay-metric: GI50 (nM)

molecule	assayed-system	obs-value
Cc1nnc(-c2ccc(Cl)cc2C[C@H]2C(=O)NCCCCC=CC[C@H](N(C)C(=O)[C@@H](NC(=O)[C@@H]3C[C@@H](F)CN3C(=O)C3(C(F)(F)F)CC(F)(F)C3)C3CC3)C(=O)N[C@@H](CC(C)C)C(=O)N2C)o1 (single isomer, unassigned) [Example 118-P2]	NCI-H1048 cells	50
CC(C)C[C@@H]1NC(=O)[C@@H](N(C)C(=O)[C@@H](NC(=O)[C@@H]2C[C@@H](F)CN2C(=O)C2(C(F)(F)F)CC(F)(F)C2)C2CC2)CC=CCCCCNC(=O)[C@H](Cc2cc(Cl)ccc2-c2cnn(C)c2)N(C)C1=O	NCI-H1048 cells	110
CC(C)C[C@@H]1NC(=O)[C@@H](NC(=O)[C@@H](NC(=O)[C@@H]2C[C@@H](F)CN2C(=O)C2(C(F)(F)F)CC(F)(F)C2)C2CC2)CC=CCCCCNC(=O)[C@H](Cc2cc(Cl)ccc2Cl)N(C)C1=O	NCI-H1048 cells	120
CC(C)C[C@@H]1NC(=O)[C@@H](N(C)C(=O)[C@@H](NC(=O)[C@@H]2C[C@@H](F)CN2C(=O)C2(C(F)(F)F)CC(F)(F)C2)C2CC2)C/C=C\CCCCN(C)C(=O)[C@H](Cc2cc(Cl)ccc2-c2cnn(S(C)(=O)=O)c2)N(C)C1=O	NCI-H1048 cells	10
